Catalogue of activity at 1000 µM readings, one per entry.
- Target Entity: Alpha (DGK alpha; only in reference sheet cells) (Rattus norvegicus)
- Experiment Summary: DGK isoform % Activity screen
- Assay type: biochemical
- Condition Description: read-out: 1 mM % Activity (section without isoform head; Alpha)
# number only, unit % dropped from output

Sample answers from the record:
Clc1ccc(C(=C2CCNCC2)c2ccc(Cl)cc2)cc1: 4
CS(=O)(=O)N1CCN(C(c2ccc(F)cc2)c2ccc(F)cc2)CC1: 74
Cc1ccc(C(=C2CCNCC2)c2ccc(C)cc2)cc1: 1
c1ccc(C(c2ccccc2)C2CCNCC2)cc1: 41

Ask: Retrieve activity at 1000 µM measured for CN(C)CCOc1ccc(/C(=C(/CCCl)c2ccccc2)c2ccccc2)cc1 and print it.
Result: 14

Ask: Retrieve activity at 1000 µM measured for OCCN1CCN(C(c2ccc(F)cc2)c2ccc(F)cc2)CC1 and print it.
Result: 36

Ask: Retrieve activity at 1000 µM measured for Fc1ccc(C(c2ccc(F)cc2)N2CCN(C3CCNCC3)CC2)cc1 and print it.
Result: 3

Ask: Retrieve activity at 1000 µM measured for Fc1ccc(C(=C2CCCN(Cc3ccccc3)C2)c2ccc(F)cc2)cc1 and print it.
Result: 160

Ask: Retrieve activity at 1000 µM measured for CC(=O)N1CCN(C(c2ccc(F)cc2)c2ccc(F)cc2)CC1 and print it.
Result: 139

Ask: Retrieve activity at 1000 µM measured for OC(c1ccc(C(F)(F)F)cc1)(c1ccc(C(F)(F)F)cc1)C1CCNCC1 and print it.
Result: 6

* * *

- Target Entity: recombinant DGKα (Rattus norvegicus)
- Construct: expressed in transfected cells; host or cells: HEK293T (SILAC HEK293T for LC-MS)
- Sequence (P51556 whole entry): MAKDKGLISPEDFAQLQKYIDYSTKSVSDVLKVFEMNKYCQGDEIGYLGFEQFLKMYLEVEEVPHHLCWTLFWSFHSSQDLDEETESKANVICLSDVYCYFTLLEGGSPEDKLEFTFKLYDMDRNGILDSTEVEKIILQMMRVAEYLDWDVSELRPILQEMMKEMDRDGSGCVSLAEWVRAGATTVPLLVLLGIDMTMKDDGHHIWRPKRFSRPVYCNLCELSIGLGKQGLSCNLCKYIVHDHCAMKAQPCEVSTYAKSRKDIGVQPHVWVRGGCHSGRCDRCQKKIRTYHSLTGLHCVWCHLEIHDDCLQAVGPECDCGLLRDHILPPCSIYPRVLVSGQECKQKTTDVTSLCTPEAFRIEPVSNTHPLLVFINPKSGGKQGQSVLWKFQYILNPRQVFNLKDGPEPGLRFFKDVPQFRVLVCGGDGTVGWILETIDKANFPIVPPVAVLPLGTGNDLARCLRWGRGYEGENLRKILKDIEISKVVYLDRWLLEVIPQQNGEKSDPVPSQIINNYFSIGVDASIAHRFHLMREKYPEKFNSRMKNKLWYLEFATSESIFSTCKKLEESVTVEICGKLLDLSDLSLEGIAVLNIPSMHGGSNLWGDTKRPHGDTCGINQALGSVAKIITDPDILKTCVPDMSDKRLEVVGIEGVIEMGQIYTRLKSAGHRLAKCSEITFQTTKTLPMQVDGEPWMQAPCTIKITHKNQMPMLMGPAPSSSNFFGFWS
- Experiment Summary: ADP-glo DAG phosphorylation substrate assay
- Format: biochemical
- Condition Description: read-out: 95% confidence intervals for IC50 values, substrate assay
Catalogue of IC50 readings, one per entry.

Fc1ccc(C(=C2CCNCC2)c2ccc(F)cc2)cc1 [RF001]: 120 to 414 µM

Could you now consider this next compound?
Ask: Write IC50 of Cc1nc2sccn2c(=O)c1CCN1CCC(=C(c2ccc(F)cc2)c2ccc(F)cc2)CC1 [Ritanserin] ; system used: recombinant DGKα (Rattus norvegicus)
Result: 20 to 30 µM

* * *

- Target Entity: Gamma (DGK gamma) (Homo sapiens)
- Sequence (P49619 whole entry, canonical isoform): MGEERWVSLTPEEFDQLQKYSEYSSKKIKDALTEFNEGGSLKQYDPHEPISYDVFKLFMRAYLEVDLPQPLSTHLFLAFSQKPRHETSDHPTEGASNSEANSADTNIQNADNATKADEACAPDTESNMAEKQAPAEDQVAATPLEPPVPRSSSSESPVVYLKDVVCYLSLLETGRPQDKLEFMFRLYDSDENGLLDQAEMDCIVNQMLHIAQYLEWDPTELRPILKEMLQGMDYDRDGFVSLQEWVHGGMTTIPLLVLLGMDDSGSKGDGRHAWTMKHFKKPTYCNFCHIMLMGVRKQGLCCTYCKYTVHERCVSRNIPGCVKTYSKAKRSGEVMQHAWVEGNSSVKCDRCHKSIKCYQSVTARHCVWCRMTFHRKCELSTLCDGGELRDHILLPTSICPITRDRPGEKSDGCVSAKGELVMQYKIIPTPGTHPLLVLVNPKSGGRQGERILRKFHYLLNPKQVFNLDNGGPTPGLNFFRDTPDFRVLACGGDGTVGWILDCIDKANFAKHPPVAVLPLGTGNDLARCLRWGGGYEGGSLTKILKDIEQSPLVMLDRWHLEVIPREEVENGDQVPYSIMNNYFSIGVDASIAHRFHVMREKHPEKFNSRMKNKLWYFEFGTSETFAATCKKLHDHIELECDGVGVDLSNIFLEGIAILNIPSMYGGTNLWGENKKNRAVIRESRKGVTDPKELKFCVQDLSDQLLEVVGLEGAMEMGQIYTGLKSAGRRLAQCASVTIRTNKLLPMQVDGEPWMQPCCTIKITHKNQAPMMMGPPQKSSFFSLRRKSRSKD
- Experiment Summary: DGK isoform % Activity screen
- Format: biochemical
Value Type: activity at 100 µM (%)
# number only, unit % dropped from output

Sample answers from the record:
Fc1ccc(C(c2ccc(F)cc2)N2CCNCC2)cc1: 99
OC(c1ccc(C(F)(F)F)cc1)(c1ccc(C(F)(F)F)cc1)C1CCNCC1: 91
O=C(c1ccc(F)cc1)C1CCN(CCn2c(=O)[nH]c3ccccc3c2=O)CC1: 24
Clc1ccc(C(=C2CCNCC2)c2ccc(Cl)cc2)cc1: 101
Fc1ccc(C(=C2CCNCC2)c2ccc(F)cc2)cc1: 82

Could you now consider this next compound?
Ask: Write activity at 100 µM of Cc1nc2sccn2c(=O)c1CCN1CCC(=C(c2ccc(F)cc2)c2ccc(F)cc2)CC1 ; system used: Gamma (DGK gamma) (Homo sapiens)
Result: 55

* * *

Catalogue of activity at 1000 µM readings, one per entry.
- Target Entity: Zeta (DGK zeta) (Homo sapiens, UniProt Q13574)
- Sequence (Q13574 whole entry, canonical isoform): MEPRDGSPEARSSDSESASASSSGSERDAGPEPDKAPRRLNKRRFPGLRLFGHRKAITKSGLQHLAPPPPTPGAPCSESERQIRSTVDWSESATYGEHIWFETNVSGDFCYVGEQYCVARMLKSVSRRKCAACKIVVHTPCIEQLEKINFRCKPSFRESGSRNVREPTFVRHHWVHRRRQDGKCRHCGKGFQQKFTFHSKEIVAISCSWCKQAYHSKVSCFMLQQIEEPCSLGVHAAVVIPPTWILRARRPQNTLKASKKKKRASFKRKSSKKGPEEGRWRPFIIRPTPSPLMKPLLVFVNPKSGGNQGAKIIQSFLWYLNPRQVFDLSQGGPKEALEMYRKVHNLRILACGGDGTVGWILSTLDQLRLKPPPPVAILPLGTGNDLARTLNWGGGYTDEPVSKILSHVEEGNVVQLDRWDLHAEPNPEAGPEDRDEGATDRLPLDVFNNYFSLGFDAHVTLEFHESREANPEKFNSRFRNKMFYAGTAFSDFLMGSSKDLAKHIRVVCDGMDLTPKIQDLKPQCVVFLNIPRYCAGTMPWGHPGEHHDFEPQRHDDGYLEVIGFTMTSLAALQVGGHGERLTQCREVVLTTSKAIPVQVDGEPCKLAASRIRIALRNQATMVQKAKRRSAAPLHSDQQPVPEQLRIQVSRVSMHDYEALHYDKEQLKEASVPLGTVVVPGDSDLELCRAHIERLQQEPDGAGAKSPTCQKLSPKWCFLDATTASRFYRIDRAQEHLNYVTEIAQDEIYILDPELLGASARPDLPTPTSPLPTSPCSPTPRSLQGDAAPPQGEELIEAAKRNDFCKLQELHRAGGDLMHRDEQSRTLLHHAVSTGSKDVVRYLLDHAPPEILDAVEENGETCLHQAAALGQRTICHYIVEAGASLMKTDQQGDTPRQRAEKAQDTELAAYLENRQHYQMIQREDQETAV
- Experiment Summary: DGK isoform % Activity screen
- Type: biochemical
- Condition Description: read-out: 1 mM % Activity, Zeta
# number only, unit % dropped from output

Sample answers from the record:
OC(c1ccc(C(F)(F)F)cc1)(c1ccc(C(F)(F)F)cc1)C1CCNCC1: 1
CS(=O)(=O)N1CCC(=C(c2ccc(F)cc2)c2ccc(F)cc2)CC1: 100
Fc1ccc(C(c2ccc(F)cc2)C2CCNCC2)cc1: 30

Ask: Retrieve activity at 1000 µM measured for CC(=O)N1CCN(C(c2ccc(F)cc2)c2ccc(F)cc2)CC1 and print it.
Result: 108

Ask: Retrieve activity at 1000 µM measured for Fc1ccc(C(=C2CCNCC2)c2ccc(F)cc2)cc1 and print it.
Result: 0

Ask: Retrieve activity at 1000 µM measured for Fc1ccc(C(c2ccc(F)cc2)N2CCN(C3CCNCC3)CC2)cc1 and print it.
Result: 0

Ask: Retrieve activity at 1000 µM measured for Fc1ccc(C(c2ccc(F)cc2)N2CCNCC2)cc1 and print it.
Result: 0

Ask: Retrieve activity at 1000 µM measured for Cc1ccc(C(=C2CCNCC2)c2ccc(C)cc2)cc1 and print it.
Result: 0

Ask: Retrieve activity at 1000 µM measured for c1ccc(C(=C2CCNCC2)c2ccccc2)cc1 and print it.
Result: 0

Ask: Retrieve activity at 1000 µM measured for c1ccc2c(c1)-c1ccccc1C2N1CCNCC1 and print it.
Result: 0

Ask: Retrieve activity at 1000 µM measured for OC(c1ccc(F)cc1)(c1ccc(F)cc1)C1CCNCC1 and print it.
Result: 0

Ask: Retrieve activity at 1000 µM measured for Clc1ccc(C(=C2CCNCC2)c2ccc(Cl)cc2)cc1 and print it.
Result: 0

* * *

- Target Entity: Zeta (DGK zeta) (Homo sapiens)
- Experiment Summary: DGK isoform % Activity screen
- Type: biochemical
Value Type: activity at 100 µM (%)
# number only, unit % dropped from output

Fc1ccc(C(=C2CCCN(Cc3ccccc3)C2)c2ccc(F)cc2)cc1: 140
c1ccc(C(=C2CCNCC2)c2ccccc2)cc1: 96
CN1C2CCC1CC(OC(c1ccccc1)c1ccccc1)C2 (centres unmarked): 82
Fc1ccc(C(c2ccc(F)cc2)N2CCN(Cc3ccc4ccccc4n3)CC2)cc1: 135
c1ccc(C(c2ccccc2)C2CCNCC2)cc1: 99
Fc1ccc(C(c2ccc(F)cc2)N2CCN(CCCN3CCCC3)CC2)cc1: 80
COc1ccc(C(=C2CCNCC2)c2ccc(OC)cc2)cc1: 103
OCCCN1CCN(C(c2ccc(F)cc2)c2ccc(F)cc2)CC1: 105
Cc1ccc(C(=C2CCNCC2)c2ccc(C)cc2)cc1: 103
O=C(c1ccc(F)cc1)C1CCN(CCn2c(=O)[nH]c3ccccc3c2=O)CC1: 90

Ask: Retrieve activity at 100 µM measured for Fc1ccc(C(c2ccc(F)cc2)N2CCN(CCCN3CCN(C(c4ccc(F)cc4)c4ccc(F)cc4)CC3)CC2)cc1 and print it.
Result: 82

Ask: Retrieve activity at 100 µM measured for CS(=O)(=O)N1CCC(=C(c2ccc(F)cc2)c2ccc(F)cc2)CC1 and print it.
Result: 112

* * *

- Target Entity: Alpha (DGK alpha; only in reference sheet cells) (Rattus norvegicus)
- Experiment Summary: DGK isoform % Activity screen
- Assay type: biochemical
- Condition Description: read-out: 1 mM % Activity (section without isoform head; Alpha)
Catalogue of activity at 1000 µM readings, one per entry.
# number only, unit % dropped from output

Sample answers from the record:
c1ccc2c(c1)-c1ccccc1C2N1CCNCC1 [TH002]: 0
Fc1ccc(C(c2ccc(F)cc2)N2CCN(CCCN3CCN(C(c4ccc(F)cc4)c4ccc(F)cc4)CC3)CC2)cc1 [TH033]: 4
Fc1ccc(C(c2ccc(F)cc2)N2CCNCC2)cc1 [TH001]: 0
OC(c1ccc(F)cc1)(c1ccc(F)cc1)C1CCNCC1 [TH028]: 0

Could you now consider this next compound?
Ask: Retrieve activity at 1000 µM measured for Fc1ccc(C(c2ccc(F)cc2)N2CCN(CCCN3CCCC3)CC2)cc1 [TH032] and print it.
Result: 8

* * *

Catalogue of activity at 1000 µM readings, one per entry.
- Target Entity: Gamma (DGK gamma) (Homo sapiens)
- Experiment Summary: DGK isoform % Activity screen
- Assay type: biochemical
- Condition Description: read-out: 1 mM % Activity, Gamma
# number only, unit % dropped from output

Sample answers from the record:
Fc1ccc(C(=C2CCNCC2)c2ccc(F)cc2)cc1 [RF001]: 5
Clc1ccc(C(=C2CCNCC2)c2ccc(Cl)cc2)cc1 [TH040]: 5
Fc1ccc(C(c2ccc(F)cc2)N2CCNCC2)cc1 [TH001]: 0

Could you now consider this next molecule?
Ask: Retrieve activity at 1000 µM measured for OC(c1ccc(C(F)(F)F)cc1)(c1ccc(C(F)(F)F)cc1)C1CCNCC1 [TH039] and print it.
Result: 1

* * *

- Target Entity: Alpha (DGK alpha; only in reference sheet cells) (Rattus norvegicus, UniProt P51556)
- Experiment Summary: DGK isoform % Activity screen
- Format: biochemical
- Condition Description: read-out: 100 uM % Activity (section without isoform head; Alpha)
Value Type: activity at 100 µM (%)
# number only, unit % dropped from output

OCCN1CCN(C(c2ccc(F)cc2)c2ccc(F)cc2)CC1: 103
CN(C)CCOc1ccc(/C(=C(/CCCl)c2ccccc2)c2ccccc2)cc1: 103
Cc1nc2sccn2c(=O)c1CCN1CCC(=C(c2ccc(F)cc2)c2ccc(F)cc2)CC1: 52
Clc1ccc(C(=C2CCNCC2)c2ccc(Cl)cc2)cc1: 78
Fc1ccc(C(c2ccc(F)cc2)N2CCNCC2)cc1: 72

Ask: Retrieve activity at 100 µM measured for Fc1ccc(C(c2ccc(F)cc2)N2CCN(C3CCNCC3)CC2)cc1 and print it.
Result: 84

Ask: Retrieve activity at 100 µM measured for Fc1ccc(C(=C2CCNCC2)c2ccc(F)cc2)cc1 and print it.
Result: 75

Ask: Retrieve activity at 100 µM measured for OCCCN1CCN(C(c2ccc(F)cc2)c2ccc(F)cc2)CC1 and print it.
Result: 107

Ask: Retrieve activity at 100 µM measured for Fc1ccc(C(c2ccc(F)cc2)N2CCN(CCCN3CCCC3)CC2)cc1 and print it.
Result: 94

Ask: Retrieve activity at 100 µM measured for O=C(c1ccc(F)cc1)C1CCN(CCn2c(=O)[nH]c3ccccc3c2=O)CC1 and print it.
Result: 99

Ask: Retrieve activity at 100 µM measured for Fc1ccc(C(c2ccc(F)cc2)N2CCN(CCCN3CCN(C(c4ccc(F)cc4)c4ccc(F)cc4)CC3)CC2)cc1 and print it.
Result: 72

Ask: Retrieve activity at 100 µM measured for Fc1ccc(C(c2ccc(F)cc2)N2CCN(Cc3ccc4ccccc4n3)CC2)cc1 and print it.
Result: 103

Ask: Retrieve activity at 100 µM measured for c1ccc2c(c1)-c1ccccc1C2N1CCNCC1 and print it.
Result: 84

Ask: Retrieve activity at 100 µM measured for Fc1ccc(C(=C2CCN(Cc3ccc4ccccc4n3)CC2)c2ccc(F)cc2)cc1 and print it.
Result: 125

Ask: Retrieve activity at 100 µM measured for OC(c1ccc(C(F)(F)F)cc1)(c1ccc(C(F)(F)F)cc1)C1CCNCC1 and print it.
Result: 81

Ask: Retrieve activity at 100 µM measured for OC(c1ccc(F)cc1)(c1ccc(F)cc1)C1CCNCC1 and print it.
Result: 96

Ask: Retrieve activity at 100 µM measured for CS(=O)(=O)N1CCN(C(c2ccc(F)cc2)c2ccc(F)cc2)CC1 and print it.
Result: 93

Ask: Retrieve activity at 100 µM measured for CS(=O)(=O)N1CCC(=C(c2ccc(F)cc2)c2ccc(F)cc2)CC1 and print it.
Result: 88

Ask: Retrieve activity at 100 µM measured for Cc1ccc(C(=C2CCNCC2)c2ccc(C)cc2)cc1 and print it.
Result: 92

Ask: Retrieve activity at 100 µM measured for c1ccc(C(=C2CCNCC2)c2ccccc2)cc1 and print it.
Result: 78

Ask: Retrieve activity at 100 µM measured for COc1ccc(C(=C2CCNCC2)c2ccc(OC)cc2)cc1 and print it.
Result: 79
